# System: Escherichia coli TOP10;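 note: peptides expressed intracellularly from a pBAD plasmid library in pooled LB shake-flask culture, induced with 0.3% L-arabinose, DNA abundance read by NGS, three biological replicates, DESeq2 with apeglm shrinkage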
# test-summary: shrunken log2 fold change of peptide-encoding DNA abundance (4.5 h post-induction vs induction); higher = less antimicrobial activity (less host growth inhibition)
# reported-conditions: time post-induction: 4.5 h; library: site-saturation at positions 5, 18, 19, 20
# label = fulfilled if shrunken log2 fold change >= -0.04 else not fulfilled

[
  {
    "entry-sequence": "RRIRERPPRLPRPRPRPDYGPRP",
    "class-assignment": "fulfilled"
  },
  {
    "entry-sequence": "RRIRARPPRLPRPRPRPFQSPRP",
    "class-assignment": "fulfilled"
  },
  {
    "entry-sequence": "RRIRGRPPRLPRPRPRPYYDPRP",
    "class-assignment": "not fulfilled"
  },
  {
    "entry-sequence": "RRIRPRPPRLPRPRPRPNNWPRP",
    "class-assignment": "not fulfilled"
  },
  {
    "entry-sequence": "RRIRGRPPRLPRPRPRPKVSPRP",
    "class-assignment": "fulfilled"
  },
  {
    "entry-sequence": "RRIRVRPPRLPRPRPRPYCDPRP",
    "class-assignment": "not fulfilled"
  },
  {
    "entry-sequence": "RRIRYRPPRLPRPRPRPCWGPRP",
    "class-assignment": "not fulfilled"
  },
  {
    "entry-sequence": "RRIRYRPPRLPRPRPRPAGMPRP",
    "class-assignment": "not fulfilled"
  },
  {
    "entry-sequence": "RRIRQRPPRLPRPRPRPDLMPRP",
    "class-assignment": "not fulfilled"
  },
  {
    "entry-sequence": "RRIRHRPPRLPRPRPRPNDYPRP",
    "class-assignment": "not fulfilled"
  },
  {
    "entry-sequence": "RRIRVRPPRLPRPRPRPGHNPRP",
    "class-assignment": "not fulfilled"
  },
  {
    "entry-sequence": "RRIRYRPPRLPRPRPRPLKTPRP",
    "class-assignment": "fulfilled"
  },
  {
    "entry-sequence": "RRIRPRPPRLPRPRPRPCPMPRP",
    "class-assignment": "not fulfilled"
  },
  {
    "entry-sequence": "RRIRRRPPRLPRPRPRPEWHPRP",
    "class-assignment": "not fulfilled"
  },
  {
    "entry-sequence": "RRIRHRPPRLPRPRPRPQDWPRP",
    "class-assignment": "fulfilled"
  },
  {
    "entry-sequence": "RRIRPRPPRLPRPRPRPVYNPRP",
    "class-assignment": "fulfilled"
  },
  {
    "entry-sequence": "RRIRVRPPRLPRPRPRPWCCPRP",
    "class-assignment": "not fulfilled"
  },
  {
    "entry-sequence": "RRIRGRPPRLPRPRPRPSQAPRP",
    "class-assignment": "fulfilled"
  },
  {
    "entry-sequence": "RRIRYRPPRLPRPRPRPITCPRP",
    "class-assignment": "fulfilled"
  },
  {
    "entry-sequence": "RRIRIRPPRLPRPRPRPFRAPRP",
    "class-assignment": "not fulfilled"
  },
  {
    "entry-sequence": "RRIRFRPPRLPRPRPRPAGEPRP",
    "class-assignment": "fulfilled"
  },
  {
    "entry-sequence": "RRIRNRPPRLPRPRPRPHFQPRP",
    "class-assignment": "fulfilled"
  },
  {
    "entry-sequence": "RRIRARPPRLPRPRPRPIDGPRP",
    "class-assignment": "fulfilled"
  },
  {
    "entry-sequence": "RRIRFRPPRLPRPRPRPVLNPRP",
    "class-assignment": "not fulfilled"
  },
  {
    "entry-sequence": "RRIRFRPPRLPRPRPRPVTSPRP",
    "class-assignment": "fulfilled"
  },
  {
    "entry-sequence": "RRIRIRPPRLPRPRPRPFSLPRP",
    "class-assignment": "not fulfilled"
  }
]

Origin of the recorded values: the supplement of paper PMC9112550
